- EXPERIMENTAL_SYSTEM: human TGFβ1, mature receptor-binding domain (human, UniProt P01137 279-390)
- Sequence (P01137 279-390 limits assumed): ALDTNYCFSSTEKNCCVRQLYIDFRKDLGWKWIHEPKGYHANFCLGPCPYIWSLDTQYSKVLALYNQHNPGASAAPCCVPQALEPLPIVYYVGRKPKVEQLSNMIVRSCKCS
- TEST_METHOD_NOTES: cell-based or functional assay
RECORDED_ENDPOINT: HEKBlue TGFβ blocking IC50

Q: Value lookup for HEKBlue TGFβ blocking IC50; key = 6F12 (antibody, V domains shown, anti-TGFβ2; called rat and rabbit in different places; also called rat 6F12; r6F12) VH: QVQLKESGPGLVQPSQTLSLTCTVSGFSLTTYNVHWVRQPPGKGLEWMGLIWNTGGTRYNSALKSRLSISKDTSKSQVFLRMNSLQTEDTATYYCARDPVPNKWHFDFWGPGTMVTVSS VL: DIQMTQSPASLSASLGETVTIECLASEDIYSNLAWYQQKPGKSPQLLIYDARSLQDGVPSRFSGSESGPQYSLEINSLQSEDAVTYFCQQHHAYPFTFGSGTKLEIK
A: > 0.2 µM
